# Koff per record follows
- System: D-VEGF
- assay-method-text: SPR affinity measurements of GB1 peptidic compounds on immobilized D-VEGF
- Format: binding
- assay-conditions: Table 2; GB1-E01 double mutants; target D-VEGF
Report as a plain number; the unit s⁻¹ is understood.

input: State its Koff for this molecule: E01-D39F/A34S: E01 double mutant D39F/A34S (protein) MKIEEHHHHHHHHHHGGSTYKLILNGKTLKGETTTEAVDVYDAFDVFFVYASSNFSFFDDWTYDDATKTFTVTEGGSDK
output: 0.00174

New cases:
input: State its Koff: E01-D39F/V22L: E01 double mutant D39F/V22L (protein) MKIEEHHHHHHHHHHGGSTYKLILNGKTLKGETTTEAVDLYDAFDVFFVYAASNFSFFDDWTYDDATKTFTVTEGGSDK
output: 0.00082

input: Indicate its recorded Koff; the molecule in question is E01-D39F/S35E: E01 double mutant D39F/S35E (protein) MKIEEHHHHHHHHHHGGSTYKLILNGKTLKGETTTEAVDVYDAFDVFFVYAAENFSFFDDWTYDDATKTFTVTEGGSDK
output: 0.00205

input: Supply Koff value. Item: E01-D39F/V31A: E01 double mutant D39F/V31A (protein) MKIEEHHHHHHHHHHGGSTYKLILNGKTLKGETTTEAVDVYDAFDVFFAYAASNFSFFDDWTYDDATKTFTVTEGGSDK
output: 0.00167
